tgt: T1, human C1s (human, UniProt P09871 16-688)
T1 construct: Analyte in the Biacore assays; also called hC1s; serum-derived human C1s (CompTech)
T1 sequence: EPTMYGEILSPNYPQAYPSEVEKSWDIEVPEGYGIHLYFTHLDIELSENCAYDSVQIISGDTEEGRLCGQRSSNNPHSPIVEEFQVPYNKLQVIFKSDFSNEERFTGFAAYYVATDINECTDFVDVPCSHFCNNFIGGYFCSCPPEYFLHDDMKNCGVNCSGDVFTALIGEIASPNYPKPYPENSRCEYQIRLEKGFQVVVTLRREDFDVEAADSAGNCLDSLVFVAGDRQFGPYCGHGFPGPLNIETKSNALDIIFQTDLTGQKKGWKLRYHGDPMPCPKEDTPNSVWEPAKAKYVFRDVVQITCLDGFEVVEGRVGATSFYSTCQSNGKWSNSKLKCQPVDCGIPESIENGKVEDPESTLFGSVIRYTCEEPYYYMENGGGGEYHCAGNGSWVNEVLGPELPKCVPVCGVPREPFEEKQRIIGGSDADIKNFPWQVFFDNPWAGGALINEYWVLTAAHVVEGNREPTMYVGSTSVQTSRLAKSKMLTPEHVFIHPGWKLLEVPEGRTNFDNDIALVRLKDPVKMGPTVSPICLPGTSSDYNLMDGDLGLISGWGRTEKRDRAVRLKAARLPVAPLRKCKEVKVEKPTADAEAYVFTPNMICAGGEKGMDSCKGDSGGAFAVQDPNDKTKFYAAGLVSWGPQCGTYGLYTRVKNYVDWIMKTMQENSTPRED
protocol notes: SPR (Biacore T200, 37C), Ab captured on protein A/G; pH 5.8, 1.2 mM Ca
I'd appreciate it if you could supply pKd values for the items below.
Give bare numbers, as −log10 of the molar value.

{"binder": "C1_IPN92H0079-SG4GK/IPN93L0024-SK1 (antibody, human IgG4 S228P, kappa, name in Kabat numbering, V domains shown, Substitutions from IPN009VH2, Kabat numbering; also called IPN92H0079/IPN93L0024) VH: EVMLVESGGGLVKPGGSLRLSCAASGFTFSNKAMSWVRQAPGKGLEWVATISSGGSHTYYLDSVKGRFTISRDNSKDTLYLQMNSLRAEDTALYYCARLFTGHAMDYWGQGTLVTVSS VL: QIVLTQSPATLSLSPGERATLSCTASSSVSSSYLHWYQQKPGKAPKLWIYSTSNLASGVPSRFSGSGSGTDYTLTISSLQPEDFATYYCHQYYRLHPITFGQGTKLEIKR", "numeric readout": 7.71}

Query block: # pKd lookup, item C1_IPN92H0261-SG4GK/IPN93L0091-SK1 (antibody, human IgG4 S228P, kappa, name in Kabat numbering, V domains shown, Substitutions from IPN009VH2 / IPN009VK3, Kabat numbering; also called IPN92H0261/IPN93L0091) VH: EVMLVESGGGLVKPGGSLRLSCAASGFTFSNYAMSWVRQAPGKGLEWVATISSGGSHTYELDSVKGRFTISRDNSKDTLYLQMNSLRAEDTALYYCARLFTKHAMDYWGQGTLVTVSS VL: QIVLTQSPATLSLSPGERATLSCTASSSVSSSRLHWYQQKPGKAPKLWIYSTSNLASGVPSRFSGSGSGTDYTLTISSLQPEDFATYYCHQYYRLHPITFGQGTKLEIKR
Result block: 7.79
